// reported GI50 of drug for each item listed
- Tested on: TK-10
- PROTOCOL_DETAILS: GI50 of drug in presence of dasatinib; higher = less potent
- TEST_CONTEXT: treatment: drug + dasatinib (fixed dose, not stated); 5 days

COMPOUND	UNITS_TEXT	GI50 of drug
COC1=CC(c2cc3ccccc3[nH]2)=N/C1=C\c1[nH]c(C)cc1C.CS(=O)(=O)O [Obatoclax mesylate (GX15-070)] + Cc1nc(Nc2ncc(C(=O)Nc3c(C)cccc3Cl)s2)cc(N2CCN(CCO)CC2)n1	µM	0.0866
Cl.N=C(N)NC(=N)NCCc1ccccc1 [Phenformin hydrochloride] + Cc1nc(Nc2ncc(C(=O)Nc3c(C)cccc3Cl)s2)cc(N2CCN(CCO)CC2)n1	µM	5.02
Cc1csc(-c2nnc(Nc3ccc(Oc4ncccc4-c4ccnc(N)n4)cc3)c3ccccc23)c1 [AMG 900] + Cc1nc(Nc2ncc(C(=O)Nc3c(C)cccc3Cl)s2)cc(N2CCN(CCO)CC2)n1	µM	6.46

----------
- Test system: 786-O
- PROTOCOL_DETAILS: minimum viability across doses, drug + dasatinib, relative to DMSO (fraction); higher = less growth inhibition
- TEST_CONTEXT: treatment: drug + dasatinib (fixed dose, not stated); 5 days

COMPOUND	minimum viability across doses
C=CC(=O)Nc1cccc(Sc2nc(Nc3ccc(N4CCN(C)CC4)cc3)ncc2Cl)c1 [WZ8040] + Cc1nc(Nc2ncc(C(=O)Nc3c(C)cccc3Cl)s2)cc(N2CCN(CCO)CC2)n1	0.00713
CNC(=O)c1ccc(C)c(-n2c(C)cc(OCc3ccc(F)cc3F)c(Br)c2=O)c1 + Cc1nc(Nc2ncc(C(=O)Nc3c(C)cccc3Cl)s2)cc(N2CCN(CCO)CC2)n1	0.457
COCCOc1ccc2c(c1)ncn2-c1ccc2cccc(N3CCC(N)CC3)c2n1 + Cc1nc(Nc2ncc(C(=O)Nc3c(C)cccc3Cl)s2)cc(N2CCN(CCO)CC2)n1	0.00646

----------
- Test system: CAKI-1
- PROTOCOL_DETAILS: minimum viability across doses, drug + dasatinib, relative to DMSO (fraction); higher = less growth inhibition
- TEST_CONTEXT: treatment: drug + dasatinib (fixed dose, not stated); 5 days

MOLECULE	TESTED_SYSTEM	minimum viability across doses
COc1ccc2c(Oc3ccc(NC(=O)c4c(C)n(CC(C)(C)O)n(-c5ccccc5)c4=O)nc3)ccnc2c1 [AMG458] + Cc1nc(Nc2ncc(C(=O)Nc3c(C)cccc3Cl)s2)cc(N2CCN(CCO)CC2)n1	CAKI-1	0.085
Cc1ccc([N+](=O)[O-])cc1S(=O)(=O)N(C)/N=C/c1cnc2ccc(Br)cn12.Cl [PIK-75] + Cc1nc(Nc2ncc(C(=O)Nc3c(C)cccc3Cl)s2)cc(N2CCN(CCO)CC2)n1	CAKI-1	0.0337
COc1ccc2cc(-c3[nH]c(-c4ccc(S(C)=O)cc4)nc3-c3ccncc3)ccc2c1 (configuration not stated) [Tie2 kinase inhibitor] + Cc1nc(Nc2ncc(C(=O)Nc3c(C)cccc3Cl)s2)cc(N2CCN(CCO)CC2)n1	CAKI-1	0.657
FC(F)(F)c1ccc(Nc2nc3cc(Oc4ccnc(-c5ncc(C(F)(F)F)[nH]5)c4)ccc3[nH]2)cc1 [Raf265 derivative] + Cc1nc(Nc2ncc(C(=O)Nc3c(C)cccc3Cl)s2)cc(N2CCN(CCO)CC2)n1	CAKI-1	0.173
N#Cc1c(O)c2c(-c3ccc(-c4ccccc4O)cc3)csc2[nH]c1=O + Cc1nc(Nc2ncc(C(=O)Nc3c(C)cccc3Cl)s2)cc(N2CCN(CCO)CC2)n1	CAKI-1	0.655
COc1ccc(-c2ccc3c(N4CCOC[C@@H]4C)nc(N4CCOC[C@@H]4C)nc3n2)cc1CO [AZD8055] + Cc1nc(Nc2ncc(C(=O)Nc3c(C)cccc3Cl)s2)cc(N2CCN(CCO)CC2)n1	CAKI-1	0.0255
CCOC(=O)C1=C(N)Oc2ccc(Br)cc2[C@H]1[C@H](C#N)C(=O)OCC [HA14-1] + Cc1nc(Nc2ncc(C(=O)Nc3c(C)cccc3Cl)s2)cc(N2CCN(CCO)CC2)n1	CAKI-1	0.628
NCC(=O)Nc1ccc(-n2nc(C(F)(F)F)cc2-c2ccc3c(ccc4ccccc43)c2)cc1 + Cc1nc(Nc2ncc(C(=O)Nc3c(C)cccc3Cl)s2)cc(N2CCN(CCO)CC2)n1	CAKI-1	0.00695
CN1CCN(c2nc(C3=C(c4c[nH]c5ccccc45)C(=O)NC3=O)c3ccccc3n2)CC1 [Sotrastaurin (AEB071)] + Cc1nc(Nc2ncc(C(=O)Nc3c(C)cccc3Cl)s2)cc(N2CCN(CCO)CC2)n1	CAKI-1	0.555
Nc1nc(NCCNc2ncc(-n3ccnc3)c(-c3ccc(Cl)cc3Cl)n2)ccc1[N+](=O)[O-] + Cc1nc(Nc2ncc(C(=O)Nc3c(C)cccc3Cl)s2)cc(N2CCN(CCO)CC2)n1	CAKI-1	0.0567
CCN(CC)CCNC(=O)c1c(C)[nH]c(/C=C2\C(=O)Nc3ccc(F)cc32)c1C.O=C(O)C[C@H](O)C(=O)O [Sunitinib Malate (Sutent)] + Cc1nc(Nc2ncc(C(=O)Nc3c(C)cccc3Cl)s2)cc(N2CCN(CCO)CC2)n1	CAKI-1	0.00649
CC(O)C(=O)O.CC(O)C(=O)O.CN1CCN(c2ccc3nc(-c4c(N)c5c(F)cccc5[nH]c4=O)[nH]c3c2)CC1 [Dovitinib Dilactic acid (TKI258 Dilactic acid)] + Cc1nc(Nc2ncc(C(=O)Nc3c(C)cccc3Cl)s2)cc(N2CCN(CCO)CC2)n1	CAKI-1	0.0435
Cn1cc(-c2ccc3nnc(Sc4ccc5ncccc5c4)n3n2)cn1 [SGX-523] + Cc1nc(Nc2ncc(C(=O)Nc3c(C)cccc3Cl)s2)cc(N2CCN(CCO)CC2)n1	CAKI-1	0.41
CCN(CC)CCCCNc1ncc2cc(-c3cc(OC)cc(OC)c3)c(NC(=O)NC(C)(C)C)nc2n1 + Cc1nc(Nc2ncc(C(=O)Nc3c(C)cccc3Cl)s2)cc(N2CCN(CCO)CC2)n1	CAKI-1	0.0229
O=c1sn(-c2cccc3ccccc23)c(=O)n1Cc1ccccc1 [Tideglusib] + Cc1nc(Nc2ncc(C(=O)Nc3c(C)cccc3Cl)s2)cc(N2CCN(CCO)CC2)n1	CAKI-1	0.664
CCCNC(=O)Nc1ccc(Oc2ncnc3cc(OC)c(OC)cc23)cc1Cl [KRN 633] + Cc1nc(Nc2ncc(C(=O)Nc3c(C)cccc3Cl)s2)cc(N2CCN(CCO)CC2)n1	CAKI-1	0.556
CNC(=O)c1nn(C)c2c1C(C)(C)Cc1cnc(Nc3ccc(N4CCN(C)CC4)cc3)nc1-2 + Cc1nc(Nc2ncc(C(=O)Nc3c(C)cccc3Cl)s2)cc(N2CCN(CCO)CC2)n1	CAKI-1	0.0344

These entries and their values trace back to the supplement of paper PMC8149375.
